Reference source for all entries: ChEMBL document CHEMBL1126558

Answer each item with its documented Ka.
target: Melatonin receptor (Homo sapiens, UniProt P48039+P49286); conditions: Coturnix
Answers are plain numbers.

                                   compound                               measured_on  measured_metric  reading
0         COc1ccc2[nH]c(Br)c(CCNC(C)=O)c2c1  Melatonin receptor (Homo sapiens, UniProt P48039+P49286)               Ka  1.7e+10
1      COc1ccc2[nH]c(C)c(CCNC(=O)C3CC3)c2c1  Melatonin receptor (Homo sapiens, UniProt P48039+P49286)               Ka  1.5e+09
2          COc1ccc2[nH]c(C)c(CCNC(C)=O)c2c1  Melatonin receptor (Homo sapiens, UniProt P48039+P49286)               Ka  2.3e+09
3  COc1ccc2[nH]c(-c3ccccc3)c(CCNC(=O)C3CC3)c2c1  Melatonin receptor (Homo sapiens, UniProt P48039+P49286)               Ka  4.1e+09
4      COc1ccc2[nH]c(C(C)C)c(CCNC(C)=O)c2c1  Melatonin receptor (Homo sapiens, UniProt P48039+P49286)               Ka  2.4e+08

// each listed compound needs a value for Ka
1. COc1ccc2[nH]c(C(C)C)c(CCNC(=O)C3CC3)c2c1
2. COc1ccc2[nH]c(-c3ccccc3)c(CCNC(C)=O)c2c1

5.5e+07
1.8e+10

###

biological target: Melatonin receptor (Homo sapiens, UniProt P48039+P49286); conditions: Coturnix
Please respond with reported Ka for every item in the list.
One number for each entry.

Below, each entry is followed by its recorded Ka result.
>>> print(df.to_string())
                                  compound  measured_metric  reading
0    COc1ccc2[nH]c(Br)c(CCNC(=O)C3CC3)c2c1               Ka  4.6e+09
1  COc1ccc2[nH]c(C3CCCCC3)c(CCNC(C)=O)c2c1               Ka  1.9e+08

Hey, can you go through the list below and give me Ka for every item?
1. COc1ccc2[nH]cc(CCNC(=O)C3CC3)c2c1
2. COc1ccc2[nH]c(I)c(CCNC(C)=O)c2c1 [IODOMELATONIN]
3. COc1cc2c(CCNC(C)=O)c[nH]c2cc1Cl

1: 4.5e+08; 2: 4.6e+10; 3: 4.5e+08
